Assay: Levels of PCB 95 and its hydroxylated metabolites in adipose, blood, brain and liver 24 h after a single oral dose (GC-MS/MS)
Type: in vivo, mice
Conditions: male, CYP2A6-humanized (KI), mouse, whole blood, po, 1 mg/kg, MKI, male CYP2A6-humanized mice, single oral PCB 95 1.0 mg/kg, mean ± SD, read-out: Levels in blood
Listed next: entries and their corresponding concentration at 24 h.
Respond with the bare value in ng/g.

Some compounds with known concentration at 24 h results, for comparison:
| chemicalString | concentration at 24 h (ng/g) |
| --- | --- |
| Clc1ccc(Cl)c(-c2c(Cl)ccc(Cl)c2Cl)c1 | 15.6 |
| Oc1c(O)c(Cl)c(-c2cc(Cl)ccc2Cl)c(Cl)c1Cl | 3.6 |

So what does the record say about concentration at 24 h for Oc1cc(Cl)c(-c2c(Cl)ccc(Cl)c2Cl)cc1Cl ?
1.3

Value lookup for concentration at 24 h; key = Oc1cc(Cl)c(Cl)c(-c2cc(Cl)ccc2Cl)c1Cl
0.6

GET /values?readout=concentration at 24 h&item= Oc1c(Cl)cc(Cl)c(-c2cc(Cl)ccc2Cl)c1Cl
0.4

Which concentration at 24 h reading was recorded for the compound Oc1cc(Cl)c(-c2cc(Cl)ccc2Cl)c(Cl)c1Cl ?
1.1

---

Test: Levels of PCB 95 and its hydroxylated metabolites in adipose, blood, brain and liver 24 h after a single oral dose (GC-MS/MS)
Assay type: in vivo, mice
Conditions: female, CYP2A6-humanized (KI), mouse, brain, po, 1 mg/kg, FKI, female CYP2A6-humanized mice, single oral PCB 95 1.0 mg/kg, mean ± SD, read-out: Levels in brain
assayReadout: concentration at 24 h (ng/g)
Express it in ng/g; write the number only.

Name the reported concentration at 24 h value associated with the compound Clc1ccc(Cl)c(-c2c(Cl)ccc(Cl)c2Cl)c1
19.7

---

Assay: Levels of PCB 95 and its hydroxylated metabolites in adipose, blood, brain and liver 24 h after a single oral dose (GC-MS/MS)
Type: in vivo, mice
Settings: female, C57BL/6 (wild-type), mouse, brain, po, 1 mg/kg, FWT, female wildtype mice, single oral PCB 95 1.0 mg/kg, mean ± SD, read-out: Levels in brain
assayReadout: concentration at 24 h (ng/g)
Form entry: value (ng/g) — number only.

Look over these answered cases.
| chemicalString | concentration at 24 h (ng/g) |
| --- | --- |
| Oc1cc(Cl)c(Cl)c(-c2cc(Cl)ccc2Cl)c1Cl | 0.25 |
| Oc1cc(Cl)c(-c2c(Cl)ccc(Cl)c2Cl)cc1Cl | 0.3 |

Consider the additional compound presented here.
Requested read-out: concentration at 24 h. Entry: Clc1ccc(Cl)c(-c2c(Cl)ccc(Cl)c2Cl)c1
19.2

---

Assay: Levels of PCB 95 and its hydroxylated metabolites in adipose, blood, brain and liver 24 h after a single oral dose (GC-MS/MS)
Assay type: in vivo, mice
Details: female, C57BL/6 (wild-type), mouse, adipose, po, 1 mg/kg, FWT, female wildtype mice, single oral PCB 95 1.0 mg/kg, mean ± SD, read-out: Levels in adipose
Reported concentration at 24 h values follow for various compounds
Report only the number, with the unit ng/g understood.

| chemicalString | assayReadout | displayUnit | reportedResult |
| --- | --- | --- | --- |
| Oc1cc(Cl)c(-c2c(Cl)ccc(Cl)c2Cl)cc1Cl | concentration at 24 h | ng/g | 1.4 |
| Oc1cc(Cl)c(-c2cc(Cl)ccc2Cl)c(Cl)c1Cl | concentration at 24 h | ng/g | 0.4 |
| Clc1ccc(Cl)c(-c2c(Cl)ccc(Cl)c2Cl)c1 | concentration at 24 h | ng/g | 1310 |
| Oc1cc(Cl)c(Cl)c(-c2cc(Cl)ccc2Cl)c1Cl | concentration at 24 h | ng/g | 1.3 |
| Oc1c(Cl)cc(Cl)c(-c2cc(Cl)ccc2Cl)c1Cl | concentration at 24 h | ng/g | 0.7 |

Please look up its concentration at 24 h: Oc1c(O)c(Cl)c(-c2cc(Cl)ccc2Cl)c(Cl)c1Cl
0.9

---

Test: Levels of PCB 95 and its hydroxylated metabolites in adipose, blood, brain and liver 24 h after a single oral dose (GC-MS/MS)
Assay type: in vivo, mice
Conditions: female, CYP2A6-humanized (KI), mouse, adipose, po, 1 mg/kg, FKI, female CYP2A6-humanized mice, single oral PCB 95 1.0 mg/kg, mean ± SD, read-out: Levels in adipose
assayReadout: concentration at 24 h (ng/g)
Note: unit ng/g is implicit; provide only the numeric part.

These solved cases illustrate the format of a correct answer.
| compound | concentration at 24 h / ng/g |
| --- | --- |
| Oc1cc(Cl)c(Cl)c(-c2cc(Cl)ccc2Cl)c1Cl [5-95, 2,2',3,5',6-pentachlorobiphenyl-5-ol] | 1.1 |
| Clc1ccc(Cl)c(-c2c(Cl)ccc(Cl)c2Cl)c1 [PCB 95, 2,2′,3,5′,6-pentachlorobiphenyl] | 824 |
| Oc1cc(Cl)c(-c2c(Cl)ccc(Cl)c2Cl)cc1Cl [4'-95] | 1.1 |

Which concentration at 24 h value belongs to Oc1c(O)c(Cl)c(-c2cc(Cl)ccc2Cl)c(Cl)c1Cl [4,5-95, 2,2',3,5',6-pentachlorobiphenyl-4,5-diol] ?
1

---

Test: Levels of PCB 95 and its hydroxylated metabolites in adipose, blood, brain and liver 24 h after a single oral dose (GC-MS/MS)
Assay type: in vivo, mice
Settings: male, CYP2A6-humanized (KI), mouse, adipose, po, 1 mg/kg, MKI, male CYP2A6-humanized mice, single oral PCB 95 1.0 mg/kg, mean ± SD, read-out: Levels in adipose
Threshold 1 ng/g: concentration at 24 h strictly smaller gives True, otherwise False.

| chemicalString | assignedLabel |
| --- | --- |
| Clc1ccc(Cl)c(-c2c(Cl)ccc(Cl)c2Cl)c1 | False |
| Oc1cc(Cl)c(-c2c(Cl)ccc(Cl)c2Cl)cc1Cl | False |
| Oc1c(O)c(Cl)c(-c2cc(Cl)ccc2Cl)c(Cl)c1Cl | True |

Quick check: does Oc1cc(Cl)c(-c2cc(Cl)ccc2Cl)c(Cl)c1Cl have concentration at 24 h under 1 ng/g?
True

hey, is concentration at 24 h for Oc1cc(Cl)c(Cl)c(-c2cc(Cl)ccc2Cl)c1Cl lower than 1 ng/g or not?
True

---

Assay: Levels of PCB 95 and its hydroxylated metabolites in adipose, blood, brain and liver 24 h after a single oral dose (GC-MS/MS)
Type: in vivo, mice
Conditions: female, CYP2A6-humanized (KI), mouse, liver, po, 1 mg/kg, FKI, female CYP2A6-humanized mice, single oral PCB 95 1.0 mg/kg, mean ± SD, read-out: Levels in liver
assayReadout: concentration at 24 h (ng/g)
Dear colleague, please return just the value in ng/g, with no unit written.

| chemicalString | concentration at 24 h, ng/g |
| --- | --- |
| Oc1cc(Cl)c(-c2c(Cl)ccc(Cl)c2Cl)cc1Cl | 4.5 |
| Oc1cc(Cl)c(-c2cc(Cl)ccc2Cl)c(Cl)c1Cl | 0.4 |
| Clc1ccc(Cl)c(-c2c(Cl)ccc(Cl)c2Cl)c1 | 114 |
| Oc1cc(Cl)c(Cl)c(-c2cc(Cl)ccc2Cl)c1Cl | 5.5 |
| Oc1c(O)c(Cl)c(-c2cc(Cl)ccc2Cl)c(Cl)c1Cl | 1.7 |

Now for a further molecule.
So what's the measured concentration at 24 h for this one? Oc1c(Cl)cc(Cl)c(-c2cc(Cl)ccc2Cl)c1Cl
1

---

Assay: Levels of PCB 95 and its hydroxylated metabolites in adipose, blood, brain and liver 24 h after a single oral dose (GC-MS/MS)
Format: in vivo, mice
Details: male, Cyp2abfgs-null (KO), mouse, whole blood, po, 1 mg/kg, MKO, male Cyp2abfgs-null mice, single oral PCB 95 1.0 mg/kg, mean ± SD, read-out: Levels in blood
# log10(concentration at 24 h) values compiled below
The figures below represent log10 of concentration at 24 h, where concentration at 24 h is stated in ng/g.

| chemicalString | log10(concentration at 24 h) |
| --- | --- |
| Oc1c(O)c(Cl)c(-c2cc(Cl)ccc2Cl)c(Cl)c1Cl | 0.72 |
| Clc1ccc(Cl)c(-c2c(Cl)ccc(Cl)c2Cl)c1 | 1.03 |
| Oc1c(Cl)cc(Cl)c(-c2cc(Cl)ccc2Cl)c1Cl | -0.30 |
| Oc1cc(Cl)c(-c2c(Cl)ccc(Cl)c2Cl)cc1Cl | 0.45 |
| Oc1cc(Cl)c(Cl)c(-c2cc(Cl)ccc2Cl)c1Cl | -0.15 |

Okay, now this molecule:
Reported log10(concentration at 24 h) for Oc1cc(Cl)c(-c2cc(Cl)ccc2Cl)c(Cl)c1Cl : what is it?
0.18

---

Assay: Levels of PCB 95 and its hydroxylated metabolites in adipose, blood, brain and liver 24 h after a single oral dose (GC-MS/MS)
Format: in vivo, mice
Conditions: female, CYP2A6-humanized (KI), mouse, whole blood, po, 1 mg/kg, FKI, female CYP2A6-humanized mice, single oral PCB 95 1.0 mg/kg, mean ± SD, read-out: Levels in blood
concentration at 24 h under 3 ng/g gets yes, anything at or over 3 ng/g gets no.

Solved cases below.
| chemicalString | assignedLabel |
| --- | --- |
| Oc1cc(Cl)c(-c2c(Cl)ccc(Cl)c2Cl)cc1Cl | no |
| Oc1cc(Cl)c(Cl)c(-c2cc(Cl)ccc2Cl)c1Cl | yes |
| Oc1cc(Cl)c(-c2cc(Cl)ccc2Cl)c(Cl)c1Cl | yes |
| Clc1ccc(Cl)c(-c2c(Cl)ccc(Cl)c2Cl)c1 | no |
| Oc1c(Cl)cc(Cl)c(-c2cc(Cl)ccc2Cl)c1Cl | yes |

Consider the additional compound presented here.
Input Oc1c(O)c(Cl)c(-c2cc(Cl)ccc2Cl)c(Cl)c1Cl ; condition: concentration at 24 h strictly below 3 ng/g. Does it hold?
no
